# target or test system: MERTK (Homo sapiens)
# measurement description: Microfluidic capillary electrophoresis (MCE) kinase activity assay, Mer
# Assay type: biochemical
# experimental conditions: Table 9
pIC50: −log10 of the molar value.
metric: pIC50

input: Record request: pIC50 value, item CN1CCN(C(=O)c2ccc(-c3cn([C@H]4CC[C@H](O)CC4)c4nc(Nc5cc(F)cc(Cl)c5)ncc34)cc2)CC1 [Compound 156]
output: > 8.00

input: Returns the measured pIC50 for the input compound. Input: CN1CCN(S(=O)(=O)c2ccc(-c3cn([C@H]4CC[C@H](O)CC4)c4nc(Nc5cc(F)cc(Cl)c5)ncc34)cc2)CC1 [Compound 63]
output: > 8.00

---

# target or test system: MERTK (Homo sapiens)
# measurement description: Microfluidic capillary electrophoresis (MCE) kinase activity assay, Mer
# Format: biochemical
# experimental conditions: Table 10
Provide the recorded IC50 for the entries that follow.

input: IC50 for CN1CCN(Cc2ccc(-c3cn(C4CCOCC4)c4nc(Nc5cc(F)cc(Cl)c5)ncc34)cc2)CC1 [Compound 160] ?
output: < 10 nM

input: For the compound shown here, CN1CCN(Cc2ccc(-c3cn([C@H]4CC[C@H](N)CC4)c4nc(Nc5cc(F)cc(Cl)c5)ncc34)cc2)CC1 [Compound 164] , give the reported IC50.
output: < 10 nM

input: I would be grateful if you could share the reported IC50 for CN1CCN(Cc2ccc(-c3cn([C@H]4CC[C@H](NC(=O)OC(C)(C)C)CC4)c4nc(Nc5cc(F)cc(Cl)c5)ncc34)cc2)CC1 [Compound 163] .
output: 100 to 1000 nM

input: Value lookup for IC50; key = CN1CCN(Cc2ccc(-c3cn(C4CC(CO)(CO)C4)c4nc(Nc5cc(C(F)(F)F)cc(C(F)(F)F)c5)ncc34)cc2)CC1 [Compound 165]
output: 1000 to 30000 nM

---

Please go through the items and note down their pIC50.
# target or test system: TYRO3 (Homo sapiens, UniProt Q06418)
# measurement description: Microfluidic capillary electrophoresis (MCE) kinase activity assay, Tyro3
# Format: biochemical
# experimental conditions: Table 2; MCE assay, ATP at Km
pIC50: −log10 of the molar value.

input: What reported pIC50 corresponds to O[C@H]1CC[C@H](n2cc(-c3ccc(CN4CCN(C5CCCC5)CC4)cc3)c3cnc(Nc4cc(F)cc(Cl)c4)nc32)CC1 [Compound 31] on TYRO3 (Homo sapiens, UniProt Q06418)?
output: > 8.00

input: What measured pIC50 is associated with CN(C)C1CCN(Cc2ccc(-c3cn([C@H]4CC[C@H](O)CC4)c4nc(Nc5cc(F)cc(Cl)c5)ncc34)cc2)CC1 [Compound 22] on TYRO3 (Homo sapiens, UniProt Q06418)?
output: > 8.00

input: pIC50 of CC1CCN(Cc2ccc(-c3cn([C@H]4CC[C@H](O)CC4)c4nc(Nc5cc(F)cc(Cl)c5)ncc34)cc2)CC1 [Compound 151] on TYRO3 (Homo sapiens, UniProt Q06418)?
output: > 8.00

---

Consider the following compounds; for each one, report its IC50.
# target or test system: MERTK (Homo sapiens, UniProt Q12866)
# measurement description: Microfluidic capillary electrophoresis (MCE) kinase activity assay, Mer
# Assay type: biochemical
# experimental conditions: Table 12

input: Provide value of IC50 for this record tested with MERTK (Homo sapiens, UniProt Q12866): CN1CCN(Cc2ccc(-c3cn([C@H]4CC[C@H](O)CC4)c4nc(Nc5cc(C(F)(F)F)cc(C(F)(F)F)c5)ncc34)cn2)CC1 [Compound 173]
output: 100 to 1000 nM

input: Query the reported IC50 for MERTK (Homo sapiens, UniProt Q12866); item: CN1CCN(Cc2ccc(-c3cn([C@H]4CC[C@H](O)CC4)c4nc(Nc5cc(F)cc(Cl)c5)ncc34)cn2)CC1 [Compound 172]
output: < 10 nM

---

# target or test system: MERTK (Homo sapiens)
# measurement description: Microfluidic capillary electrophoresis (MCE) kinase activity assay, Mer
# Format: biochemical
# experimental conditions: Table 8
metric: IC50

input: Form field: IC50 recorded for CN1CCC(Nc2ccc(-c3cn([C@H]4CC[C@H](O)CC4)c4nc(Nc5cc(F)cc(Cl)c5)ncc34)cc2)CC1 with MERTK (Homo sapiens) (enter value)
output: < 10 nM

---

# target or test system: MERTK (Homo sapiens, UniProt Q12866)
# Sequence (Q12866 21-999): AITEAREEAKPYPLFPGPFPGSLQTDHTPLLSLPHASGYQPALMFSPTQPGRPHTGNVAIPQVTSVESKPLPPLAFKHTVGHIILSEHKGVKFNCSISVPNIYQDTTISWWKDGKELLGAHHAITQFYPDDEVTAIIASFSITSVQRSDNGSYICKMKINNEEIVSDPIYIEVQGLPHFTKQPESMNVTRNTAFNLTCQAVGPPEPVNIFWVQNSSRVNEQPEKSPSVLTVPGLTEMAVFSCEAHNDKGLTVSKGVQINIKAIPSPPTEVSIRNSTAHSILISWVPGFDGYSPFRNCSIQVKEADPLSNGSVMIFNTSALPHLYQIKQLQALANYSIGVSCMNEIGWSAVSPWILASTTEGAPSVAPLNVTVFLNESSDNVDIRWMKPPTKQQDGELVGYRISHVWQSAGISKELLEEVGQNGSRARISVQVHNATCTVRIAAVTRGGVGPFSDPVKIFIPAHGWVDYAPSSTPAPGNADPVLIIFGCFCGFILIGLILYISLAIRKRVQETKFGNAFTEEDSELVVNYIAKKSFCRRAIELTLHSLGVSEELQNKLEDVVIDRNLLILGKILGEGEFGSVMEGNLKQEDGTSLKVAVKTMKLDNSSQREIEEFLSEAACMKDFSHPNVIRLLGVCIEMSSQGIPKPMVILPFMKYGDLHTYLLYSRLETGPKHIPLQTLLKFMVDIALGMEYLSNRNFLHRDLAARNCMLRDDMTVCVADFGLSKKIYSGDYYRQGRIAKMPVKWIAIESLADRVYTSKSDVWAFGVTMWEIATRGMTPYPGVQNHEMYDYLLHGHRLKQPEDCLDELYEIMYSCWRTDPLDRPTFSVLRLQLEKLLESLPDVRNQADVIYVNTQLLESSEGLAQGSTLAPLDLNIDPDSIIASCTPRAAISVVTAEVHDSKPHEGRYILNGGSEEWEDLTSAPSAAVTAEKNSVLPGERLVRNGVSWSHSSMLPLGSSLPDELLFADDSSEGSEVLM
# measurement description: Microfluidic capillary electrophoresis (MCE) kinase activity assay, Mer
# Assay type: biochemical
# experimental conditions: Table 7
pIC50: −log10 of the molar value.
metric: pIC50

input: Name the reported pIC50 value associated with the molecule CN1CCC(Oc2ccc(-c3cn([C@H]4CC[C@H](O)CC4)c4nc(Nc5cc(F)cc(Cl)c5)ncc34)cc2)CC1
output: > 8.00

input: # lookup: pIC50 of CN1CCC(Oc2ccc(-c3cn([C@H]4CC[C@H](O)CC4)c4nc(Nc5cc(C(F)(F)F)cc(C(F)(F)F)c5)ncc34)cc2)CC1
output: 4.52 to 6.00

---

# target or test system: UniProt Q06418
# Sequence (Q06418 41-890): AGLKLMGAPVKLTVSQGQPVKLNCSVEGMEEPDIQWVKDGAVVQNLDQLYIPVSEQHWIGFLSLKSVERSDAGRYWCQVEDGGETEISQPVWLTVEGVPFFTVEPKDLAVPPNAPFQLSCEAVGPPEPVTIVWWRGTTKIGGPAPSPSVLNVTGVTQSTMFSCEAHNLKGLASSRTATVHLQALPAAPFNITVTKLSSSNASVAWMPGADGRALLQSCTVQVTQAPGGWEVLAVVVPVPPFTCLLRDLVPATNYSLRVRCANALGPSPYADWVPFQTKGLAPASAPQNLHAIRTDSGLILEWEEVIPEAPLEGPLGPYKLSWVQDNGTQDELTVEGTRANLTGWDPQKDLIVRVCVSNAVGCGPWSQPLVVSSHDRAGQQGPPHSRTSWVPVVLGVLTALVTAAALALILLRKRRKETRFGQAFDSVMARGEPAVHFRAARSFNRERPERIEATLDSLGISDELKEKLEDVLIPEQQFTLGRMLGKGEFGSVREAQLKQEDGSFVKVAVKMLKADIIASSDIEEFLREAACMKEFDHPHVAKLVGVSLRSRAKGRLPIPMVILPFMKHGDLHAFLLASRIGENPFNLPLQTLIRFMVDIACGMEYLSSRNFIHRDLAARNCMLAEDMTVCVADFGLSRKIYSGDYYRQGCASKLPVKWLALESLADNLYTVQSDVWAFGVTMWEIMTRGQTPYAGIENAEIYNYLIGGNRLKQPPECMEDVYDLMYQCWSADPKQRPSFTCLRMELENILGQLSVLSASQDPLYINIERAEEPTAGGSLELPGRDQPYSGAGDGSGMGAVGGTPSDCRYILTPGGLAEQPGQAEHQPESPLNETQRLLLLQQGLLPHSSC
# measurement description: Microfluidic capillary electrophoresis (MCE) kinase activity assay, Tyro3
# Format: biochemical
# experimental conditions: Table 10
pIC50: −log10 of the molar value.
metric: pIC50

input: Report pIC50 for CN1CCN(Cc2ccc(-c3cn([C@H]4CC[C@H](NC(=O)OC(C)(C)C)CC4)c4nc(Nc5cc(F)cc(Cl)c5)ncc34)cc2)CC1 please.
output: 7.00 to 8.00

input: What value of pIC50 has been reported for the following compound? CN1CCN(Cc2ccc(-c3cn(C4CC(CO)(CO)C4)c4nc(Nc5cc(C(F)(F)F)cc(C(F)(F)F)c5)ncc34)cc2)CC1
output: > 8.00

input: Entry CN1CCN(Cc2ccc(-c3cn(C4CCOCC4)c4nc(Nc5cc(F)cc(Cl)c5)ncc34)cc2)CC1 : reported pIC50 = ?
output: > 8.00

input: Using the record for CN1CCN(Cc2ccc(-c3cn([C@H]4CC[C@H](NC(=O)OC(C)(C)C)CC4)c4nc(Nc5cc(C(F)(F)F)cc(C(F)(F)F)c5)ncc34)cc2)CC1 , report its pIC50.
output: 7.00 to 8.00

input: Given the entry CN1CCN(Cc2ccc(-c3cn([C@H]4CC[C@H](N)CC4)c4nc(Nc5cc(F)cc(Cl)c5)ncc34)cc2)CC1 , report its measured pIC50.
output: > 8.00
